# Test system: U2OS
# Protocol text: Multiplex assay against U2OS
# Format: toxicity, cell-based
# Test context: human, 24 h, 10 µM, compound concentration 10 uM, replicate 2
Each record's class is read off its Population Healthy Nuclei (%) using these ranges: I: < 50%; II: ≥ 50% and < 60%; III: ≥ 60%

{"Compound": "CC(C)(O)CNc1ncc(-c2ccnc(Nc3ccnc(Cl)c3)n2)c(CC2CC2)n1", "Category label": "I"}
{"Compound": "CN(C)C(=O)N[C@H]1CC[C@H](CCN2CCN(c3cccc(Cl)c3Cl)CC2)CC1.Cl [CARIPRAZINE HYDROCHLORIDE]", "Category label": "II"}
{"Compound": "c1cn2cc(-c3ccc4cn[nH]c4c3)nc(Nc3ccc(N4CCOCC4)cc3)c2n1 [ENTOSPLETINIB]", "Category label": "I"}
{"Compound": "COc1ncc(-c2ccc3nccc(-c4ccnnc4)c3c2)cc1NS(=O)(=O)c1ccc(F)cc1F [OMIPALISIB]", "Category label": "I"}
{"Compound": "O=C1NCN(c2ccccc2)C12CCN(CCCOc1ccc(F)cc1)CC2 [SPIRAMIDE]", "Category label": "III"}
{"Compound": "Cc1nc(-c2cn3c(n2)-c2ccc(-c4cnn(C(C)(C)C(N)=O)c4)cc2OCC3)n(C(C)C)n1 [TASELISIB]", "Category label": "III"}
{"Compound": "CNc1nc(NCc2ccc(NS(C)(=O)=O)cc2Cl)cc(-c2ccccn2)n1", "Category label": "III"}
{"Compound": "Cc1csc2c(N[C@@H](C)CN3CCN(S(=O)(=O)c4ccc(Cl)c(Cl)c4)CC3)ncnc12", "Category label": "II"}
{"Compound": "CN1CCCC(n2nc(Cc3ccc(Cl)cc3)c3ccccc3c2=O)CC1.Cl (stereo unspecified) [AZELASTINE HYDROCHLORIDE]", "Category label": "II"}
